Listed molecules paired with reported kinase still bound, per cent of control
molecular target: TLK1 (human); experiment: KINOMEscan competition binding; details: compound 10.0 µM
The figure you give is taken to be in %; do not add the unit.

Below are worked cases with known answers.
C[C@@H](Oc1cc(-c2cnn(C3CCNCC3)c2)cnc1N)c1c(Cl)ccc(F)c1Cl    61
C=CC(=O)Nc1ccc(CN(C(=O)Nc2c(Cl)c(OC)cc(OC)c2Cl)c2cc(Nc3ccc(N4CCN(C)CC4)cc3)ncn2)cc1    100
N#CCNC(=O)c1ccc(-c2ccnc(Nc3ccc(N4CCOCC4)cc3)n2)cc1    59
O=C(Nc1cccc(Nc2ncc(Br)c(NCCc3cnc[nH]3)n2)c1)N1CCCC1    37
COc1cc(N2CCN(C)CC2)ccc1Nc1ncc2c(n1)N(C)c1ccccc1C(=O)N2C    100
COc1cc(C(=O)N2CCC(N3CCN(C)CC3)CC2)ccc1Nc1ncc2c(n1)N(C)c1ccccc1C(=O)N2C    100

Exercise: Specify kinase still bound, per cent of control for `NC(=O)Nc1cc(-c2cccc(F)c2)sc1C(=O)N[C@@H]1CCCNC1` and stop.
Solution: 0.9

Exercise: Specify measured kinase still bound, per cent of control for `Cc1n[nH]c2ccc(-c3cncc(OC[C@@H](N)Cc4c[nH]c5ccccc45)c3)cc12` .
Solution: 100

Exercise: Using the record for `CS(=O)(=O)N1CCN(Cc2cc3nc(-c4cccc5[nH]ncc45)nc(N4CCOCC4)c3s2)CC1` , state its measured kinase still bound, per cent of control.
Solution: 100

====

target: EPHA4 (human) (UniProt P54764); test: KINOMEscan competition binding; conditions: compound 10.0 µM
Sequence (P54764 whole entry, looked up): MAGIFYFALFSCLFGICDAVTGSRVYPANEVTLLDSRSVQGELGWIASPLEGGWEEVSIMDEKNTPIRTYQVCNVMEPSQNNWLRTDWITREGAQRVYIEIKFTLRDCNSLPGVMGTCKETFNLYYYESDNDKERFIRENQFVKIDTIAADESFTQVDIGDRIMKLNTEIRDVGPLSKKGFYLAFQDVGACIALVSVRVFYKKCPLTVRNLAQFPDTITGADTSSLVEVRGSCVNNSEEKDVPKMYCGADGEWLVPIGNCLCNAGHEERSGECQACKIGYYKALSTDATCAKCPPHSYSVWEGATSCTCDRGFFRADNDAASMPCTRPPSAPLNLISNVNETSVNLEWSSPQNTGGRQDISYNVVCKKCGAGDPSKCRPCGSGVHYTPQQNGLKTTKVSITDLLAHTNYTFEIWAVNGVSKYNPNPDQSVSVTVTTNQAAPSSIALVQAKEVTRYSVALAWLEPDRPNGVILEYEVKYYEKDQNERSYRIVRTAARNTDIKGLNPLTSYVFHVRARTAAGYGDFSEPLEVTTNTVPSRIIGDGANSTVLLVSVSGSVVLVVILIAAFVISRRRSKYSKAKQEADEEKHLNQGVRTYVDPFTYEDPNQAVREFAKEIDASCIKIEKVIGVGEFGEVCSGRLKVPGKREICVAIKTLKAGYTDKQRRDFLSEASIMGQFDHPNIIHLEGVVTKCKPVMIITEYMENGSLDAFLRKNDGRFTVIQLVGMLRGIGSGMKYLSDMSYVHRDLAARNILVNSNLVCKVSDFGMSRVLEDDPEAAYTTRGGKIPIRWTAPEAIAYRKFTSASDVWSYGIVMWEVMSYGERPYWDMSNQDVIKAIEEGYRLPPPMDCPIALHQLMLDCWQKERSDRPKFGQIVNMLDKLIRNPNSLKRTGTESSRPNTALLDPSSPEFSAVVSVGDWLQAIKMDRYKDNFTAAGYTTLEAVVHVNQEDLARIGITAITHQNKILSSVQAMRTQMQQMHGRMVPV
PARAMETER MEASURED: kinase still bound, per cent of control

Solved cases (3 shown):
CCN1CCN(C(=O)Cc2ccc(Nc3ncc(F)c(Nc4ccc(C(=O)Nc5ccccc5Cl)cc4)n3)cc2)CC1    83%
CCN(CC)CCCCNc1ncc2c(n1)N(C)C(=O)N(c1c(Cl)c(OC)cc(OC)c1Cl)C2    100%
O=c1cc(N2CCOCC2)oc2c(-c3cccc4c3sc3ccccc34)cccc12    82%

Could you now consider this next compound?
Exercise: For the compound `CNC(=O)c1ccc(Nc2cc(Nc3ccccc3S(=O)(=O)C(C)C)c3cc[nH]c3n2)nc1` , give its reported kinase still bound, per cent of control.
Solution: 100%

====

biological target: MAP3K1 (human) (UniProt Q13233); assay: KINOMEscan competition binding; conditions: compound 10.0 µM
Sequence (Q13233 whole entry, looked up): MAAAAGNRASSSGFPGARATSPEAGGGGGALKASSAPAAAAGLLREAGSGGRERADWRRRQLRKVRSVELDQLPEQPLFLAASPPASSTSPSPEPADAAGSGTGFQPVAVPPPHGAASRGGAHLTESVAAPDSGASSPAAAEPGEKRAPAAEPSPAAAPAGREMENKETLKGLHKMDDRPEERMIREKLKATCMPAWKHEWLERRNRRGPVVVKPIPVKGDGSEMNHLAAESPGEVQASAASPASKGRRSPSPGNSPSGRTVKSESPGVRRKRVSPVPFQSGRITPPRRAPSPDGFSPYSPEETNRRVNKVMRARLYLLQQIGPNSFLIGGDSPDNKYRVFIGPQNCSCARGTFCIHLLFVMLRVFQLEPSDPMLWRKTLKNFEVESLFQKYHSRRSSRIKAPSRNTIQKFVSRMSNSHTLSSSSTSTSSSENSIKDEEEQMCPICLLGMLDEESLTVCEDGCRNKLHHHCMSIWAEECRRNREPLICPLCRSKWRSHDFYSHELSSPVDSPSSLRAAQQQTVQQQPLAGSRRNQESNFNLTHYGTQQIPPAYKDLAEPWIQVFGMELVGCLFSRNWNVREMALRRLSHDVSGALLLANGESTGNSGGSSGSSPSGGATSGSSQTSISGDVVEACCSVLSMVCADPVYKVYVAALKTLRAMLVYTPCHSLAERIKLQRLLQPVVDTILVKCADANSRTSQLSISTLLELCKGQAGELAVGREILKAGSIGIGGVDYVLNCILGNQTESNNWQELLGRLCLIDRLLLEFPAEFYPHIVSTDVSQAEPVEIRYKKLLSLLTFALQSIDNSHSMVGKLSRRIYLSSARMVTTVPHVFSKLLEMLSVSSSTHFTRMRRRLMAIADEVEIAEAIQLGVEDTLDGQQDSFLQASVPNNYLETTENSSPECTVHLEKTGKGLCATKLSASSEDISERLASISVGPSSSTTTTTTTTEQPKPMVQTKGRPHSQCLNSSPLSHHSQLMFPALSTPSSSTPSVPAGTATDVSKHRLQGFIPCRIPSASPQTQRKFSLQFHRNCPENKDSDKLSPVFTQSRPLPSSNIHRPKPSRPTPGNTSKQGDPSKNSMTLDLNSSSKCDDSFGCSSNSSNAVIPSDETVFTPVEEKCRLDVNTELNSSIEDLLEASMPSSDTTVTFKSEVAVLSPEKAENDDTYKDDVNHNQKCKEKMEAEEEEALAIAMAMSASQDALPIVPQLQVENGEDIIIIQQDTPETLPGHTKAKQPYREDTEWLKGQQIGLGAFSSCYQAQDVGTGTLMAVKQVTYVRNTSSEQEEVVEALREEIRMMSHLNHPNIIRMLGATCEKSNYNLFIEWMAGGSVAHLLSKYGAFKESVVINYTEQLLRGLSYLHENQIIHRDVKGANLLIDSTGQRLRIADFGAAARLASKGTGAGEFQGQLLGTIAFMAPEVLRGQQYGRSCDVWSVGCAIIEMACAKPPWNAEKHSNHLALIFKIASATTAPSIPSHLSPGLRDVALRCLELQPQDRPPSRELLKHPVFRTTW
PARAMETER MEASURED: kinase still bound, per cent of control (%)
Output spec: scalar in %, unitless text.

CN(C)C/C=C/C(=O)Nc1ccc(C(=O)Nc2cccc(Nc3nccc(-c4cccnc4)n3)c2)cc1    100

Exercise: Look up and report measured kinase still bound, per cent of control for this entry: `CS(=O)(=O)N1CCN(Cc2cc3nc(-c4cccc5[nH]ncc45)nc(N4CCOCC4)c3s2)CC1`
Solution: 100

Exercise: Determine from records and report kinase still bound, per cent of control for `COc1cc2ncnc(-n3nc(-c4ccccn4)nc3N)c2cc1OC`
Solution: 66

Exercise: # return recorded kinase still bound, per cent of control for input `O=C(Nc1cccc(Nc2ncc(Br)c(NCCc3cnc[nH]3)n2)c1)N1CCCC1`
Solution: 34

Exercise: Look up and report measured kinase still bound, per cent of control for this entry: `C[C@@H](Oc1cc(-c2cnn(C3CCNCC3)c2)cnc1N)c1c(Cl)ccc(F)c1Cl`
Solution: 4.4

Exercise: Answer with the recorded kinase still bound, per cent of control for the compound listed here: `CCN1CCN(C(=O)Cc2ccc(Nc3ncc(F)c(Nc4ccc(C(=O)Nc5ccccc5Cl)cc4)n3)cc2)CC1`
Solution: 97

Exercise: Return value of kinase still bound, per cent of control for input `O=c1cc(N2CCOCC2)oc2c(-c3cccc4c3sc3ccccc34)cccc12` , no commentary.
Solution: 100

Exercise: Provide measured kinase still bound, per cent of control value, entry: `O=C1NC(=O)/C(=C/c2ccc3nccc(-c4ccncc4)c3c2)S1`
Solution: 60

Exercise: Return value of kinase still bound, per cent of control for input `COc1cc2ncn(-c3cc(OCc4ccccc4C(F)(F)F)c(C(N)=O)s3)c2cc1OC` , no commentary.
Solution: 1.6

Exercise: Supply reported kinase still bound, per cent of control belonging to this compound: `C=CC(=O)Nc1cc(-n2c(=O)ccc3cnc4ccc(-c5cn[nH]c5)cc4c32)ccc1C`
Solution: 97

Exercise: Supply kinase still bound, per cent of control value. Item: `NC(=O)Nc1cc(-c2cccc(F)c2)sc1C(=O)N[C@@H]1CCCNC1`
Solution: 51

Exercise: Supply reported kinase still bound, per cent of control belonging to this compound: `COc1ccc(N(C(=O)Oc2c(C)cccc2C)c2ccnc(Nc3ccc(N4CCN(C)CC4)cc3)n2)c(OC)c1`
Solution: 32

Exercise: For the compound `CNC(=O)c1cc(Oc2ccc(NC(=O)Nc3ccc(Cl)c(C(F)(F)F)c3)cc2)ccn1` , report kinase still bound, per cent of control.
Solution: 64

Exercise: Read the entry `COc1cc(C(=O)N2CCC(N3CCN(C)CC3)CC2)ccc1Nc1ncc2c(n1)N(C)c1ccccc1C(=O)N2C` and write its reported kinase still bound, per cent of control.
Solution: 95

Exercise: Note down kinase still bound, per cent of control recorded for `COc1cc(N2CCN(C)CC2)ccc1Nc1ncc2c(n1)N(C)c1ccccc1C(=O)N2C`
Solution: 100

Exercise: Note kinase still bound, per cent of control for the compound shown: `COCC(=O)NC/C=C/c1ccc2ncnc(Nc3ccc(Oc4ccc(C)nc4)c(C)c3)c2c1`
Solution: 100

Exercise: Give the reported kinase still bound, per cent of control for this compound. `N#CCNC(=O)c1ccc(-c2ccnc(Nc3ccc(N4CCOCC4)cc3)n2)cc1`
Solution: 92

Exercise: Supply reported kinase still bound, per cent of control belonging to this compound: `CCN(CC)CCCCNc1ncc2c(n1)N(C)C(=O)N(c1c(Cl)c(OC)cc(OC)c1Cl)C2`
Solution: 100
